- System: BT-549 breast
- Protocol description: NCI tumour cell line growth inhibition, 48 h
Catalogue of TGI readings, one per entry.
Measure: TGI (µM)

> print(dat)
                                   compound  value.units  value.operator  reading
1  CCOC(=O)CC[C@H](N)C(=O)N[C@@H](Cc1ccc(N(CCCl)CCCl)cc1)C(=O)OCC           µM               =     22.3
2  CCN(CC)CCN1CC(O)=C(c2nc(-c3ccc(Cl)cc3)cs2)C1=N           µM               =     21.2
3  COc1ccc(N2C(=O)C3c4[nH]c5ccc(C)cc5c4C4CCC(C(C)(C)C)CC4C3C2=O)cc1 (stereo not given)           µM               =     67.9
4  C[N+]12CCCCC1C(COc1cccc3cccnc13)CCC2 (stereo not given)           µM               >      100
5  CC12Nc3c(Cl)cc(Cl)cc3N1C(=O)c1ccccc12 (stereo not given)           µM               >      100

* * *

- Test system: M14 melanoma
- Protocol description: NCI tumour cell line growth inhibition, 48 h
Measure: TGI

> print(dat)
                                   molecule  experimental.system  measure   reading
1  COC(=O)c1ccccc1/C=C1\Cc2c(ccc3c2CCC3)C1=O         M14 melanoma      TGI  > 100 µM
2  C[C@]12CC[C@H]3[C@@H](CCC4=CC(=O)CC[C@@H]43)[C@@H]1CC[C@]2(O)C(N)=O         M14 melanoma      TGI  > 100 µM
3             O=C1C2=Cc3ccccc3CCN2c2ccccc21         M14 melanoma      TGI   26.8 µM
4  CC1(C)C2CC(O)C1(C)CC2=O (configuration not stated)         M14 melanoma      TGI  > 100 µM
5  CCOC(=O)C(Cc1ccc2ccccc2c1)(Cc1ccc2ccccc2c1)C(C)=O         M14 melanoma      TGI   > 10 µM
6  Cc1noc(C)c1CCCOC1COc2ccccc2OCCOCCOc2ccccc2OC1         M14 melanoma      TGI  > 100 µM
7  COc1ccc(C(=O)c2cc(C)c(OC)c(C)c2)c(OC)c1N(C(=O)C(Cl)Cl)C(=O)C(Cl)Cl         M14 melanoma      TGI  > 100 µM

* * *

- System: NCI-H460 lung
- Protocol description: NCI tumour cell line growth inhibition, 48 h
Measure: TGI

> print(dat)
                                    molecule   reading
 1  CCCN(CCc1ccc(-c2ccccc2)cc1)CCc1ccc2n[nH]nc2c1   22.1 µM
 2  Cc1nc(N)c(N2CCN(S(N)(=O)=O)CC2)c(=O)[nH]1  > 100 µM
 3  COc1ccc(C(=O)COc2cccc(/C=C3\COc4ccc5ccccc5c4C3=O)c2)cc1  > 100 µM
 4  O=c1[nH]c2cccc([N+](=O)[O-])c2c(=O)n1-c1ccc(Cl)cc1   25.8 µM
 5  CCN(CC)CCN1CC(O)=C(c2nc(-c3ccc(Cl)cc3)cs2)C1=N   4.29 µM
 6  CCS(=O)(=O)c1ccc(OC)c(Nc2ncc(-c3cccc(OC)c3)o2)c1   > 25 µM
 7  C/C(Cl)=N/OC(=O)Nc1ccc(F)c([N+](=O)[O-])c1  > 100 µM
 8  Cc1ccc(/C(=C/C=C(C#N)C#N)Sc2ccc(Cl)cc2)cc1   29.7 µM
 9  Cc1ccc(N(C(=O)CC(=O)NN)C(=O)c2ccccc2Cl)cc1  > 100 µM
10  COc1ccc(CNc2ccn(C3OC(CO)C(O)C3O)c(=O)n2)cc1 (configuration not stated)  > 100 µM
11  CN1CCCC2C(c3ccccc3)C(C3=NCCCC3)C(c3ccccc3)CC21 (configuration not stated)  > 100 µM
12  N=c1c2ccccc2nc2oc3cc([N+](=O)[O-])ccc3n12  > 100 µM
